Where do these numbers come from? They come from PubChem BioAssay AID449763.

- experimental_details: activators of apoptotic CHOP UPR arm, primary screen, cell-based, CHO-CHOP luciferase reporter, luminescence, uHTS (AID 449763);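 further: 100% = tunicamycin at 10 µg/mL and 0% = DMSO alone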
- condition_notes: at 10 µM, hits give high values, percent of tunicamycin response over DMSO baseline
Out of some 330,000 compounds screened, about 1,100 (0.33%) were called active. This excerpt belongs to a sample that is enriched for actives.
metric_name: activation (%)
State just the number; it will be interpreted in %.

{"molecule": "O=C(O)COc1ccccc1/C=C1\\C(=O)NC(=O)N(CCC2=CCCCC2)C1=O", "activation, %": -0.189}
{"molecule": "COc1cccc(-c2nc3ccc(N4CCN(C)CC4)cc3[nH]2)c1", "activation, %": -6.37}
{"molecule": "O=C1NC(=O)N(Cc2ccco2)C(=O)/C1=C\\c1ccc(-c2ccc(F)cc2)o1", "activation, %": 0.772}

Query molecule follows.
Problem: Quick one: activation for Cc1cc(N2C(=O)C3CCCN3C2c2ccc(Cl)c(Cl)c2)no1 (centres undefined) ?
Result: -0.781
